testedSystem: UniProt Q9NZQ7
Sequence (Q9NZQ7 19-238): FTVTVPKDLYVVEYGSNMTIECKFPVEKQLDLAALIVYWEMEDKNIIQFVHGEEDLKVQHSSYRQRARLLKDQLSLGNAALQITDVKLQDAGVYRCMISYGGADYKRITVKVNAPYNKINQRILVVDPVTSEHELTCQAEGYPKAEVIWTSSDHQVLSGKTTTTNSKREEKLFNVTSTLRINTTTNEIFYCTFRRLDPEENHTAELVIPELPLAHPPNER
Sequence (Q9NZQ7 19-238): as above
assayProtocol: PD-L1/PD-L1 dimerization biochemical protein-protein interaction assay (ALPHA)
Assay type: binding
conditionLabel: 0.5 nM His tagged PD-L1 and 0.5 nM FLAG tagged PD-L1, Table 4B, read-out: AC50 PDL1 Dimer 1 nM
Each entry below carries its reported AC50.
Please state the figure in nM; there is no need to write the unit.

// worked examples, AC50 included
1. COc1nc(-c2cccc(-c3cccc4c3CC[C@@H]4Oc3nc(OC)c(CNC4(C(=O)O)CCOCC4)cc3Cl)c2Cl)ccc1CNC[C@@H]1CCC(=O)N1
9.55
2. COc1nc(-c2cccc(-c3cccc4c3CC[C@@H]4Oc3nc(OC)c(CN4CC(C(=O)O)C4)nc3Cl)c2Cl)ccc1CNC[C@@H]1CCC(=O)N1
12.7
3. COc1nc(-c2cccc(-c3cccc4c3CC[C@@H]4Oc3nc(OC)c(CNC4(C(=O)O)CC4)cc3C(F)(F)F)c2Cl)ccc1CNC[C@@H]1CC(O)C(=O)N1 (stereo partly shown)
9.7
4. COc1nc(-c2cccc(-c3cccc4c3CC[C@@H]4Oc3nc(OC)c(CNC4(C(=O)O)CC4)cc3Cl)c2Cl)ccc1CNC[C@@H]1CCC(=O)N1
10.2
5. COc1nc(-c2cccc(-c3cccc4c3CC[C@@H]4Oc3nc(OC)c(CN4C[C@@H]5CCC[C@]5(C(=O)O)C4)cc3Cl)c2Cl)ccc1CNC[C@@H]1CCC(=O)N1
54.5

I have this compound here, "CC[C@](C)(NCc1cc(C(F)(F)F)c(O[C@H]2CCc3c(-c4cccc(-c5ccc(CNC[C@@H]6CCC(=O)N6)c(OC)n5)c4Cl)cccc32)nc1OC)C(=O)O" , and I need its recorded AC50.
3.02

What about this compound? "COc1nc(-c2cccc(-c3cccc4c3CC[C@@H]4Oc3nc(OC)c(CNCCC(=O)O)cc3C(F)(F)F)c2Cl)ccc1CNC[C@@H]1CCC(=O)N1"
7.26

What about this compound? "COc1cc(O[C@H]2CCc3c(-c4cccc(-c5ccc(CNC[C@@H]6CCC(=O)N6)c(OC)n5)c4Cl)cccc32)c(Cl)cc1CN1CC2(C(=O)O)CCC1CC2"
43.7

What about this compound? "COc1nc(-c2cccc(-c3cccc4c3CC[C@@H]4Oc3nc(OC)c(CN(C)[C@@H](C)C(=O)O)cc3C(F)(F)F)c2Cl)ccc1CNC[C@@H]1CCC(=O)N1"
8.73

What about this compound? "COc1nc(-c2cccc(-c3cccc4c3CC[C@@H]4Oc3nc(OC)c(CNC4(C(=O)O)CC4)cc3C(F)(F)F)c2Cl)ccc1CNC[C@@H]1CCC(=O)N1"
3.77
